assayedSystem: G-protein coupled receptor 84 (Homo sapiens, UniProt Q9NQS5)
Sequence (Q9NQS5 whole entry): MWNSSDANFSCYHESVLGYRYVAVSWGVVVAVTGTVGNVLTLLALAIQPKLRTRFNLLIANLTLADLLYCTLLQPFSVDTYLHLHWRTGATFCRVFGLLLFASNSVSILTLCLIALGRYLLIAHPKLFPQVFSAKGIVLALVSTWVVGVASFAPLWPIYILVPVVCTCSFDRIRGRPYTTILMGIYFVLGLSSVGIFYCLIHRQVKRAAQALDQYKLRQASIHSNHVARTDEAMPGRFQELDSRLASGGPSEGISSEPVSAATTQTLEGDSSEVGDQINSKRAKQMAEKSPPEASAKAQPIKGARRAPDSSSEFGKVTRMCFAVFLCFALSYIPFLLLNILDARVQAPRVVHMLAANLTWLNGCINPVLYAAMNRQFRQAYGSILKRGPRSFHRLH
testMethodNotes: Agonist activity at Gi coupled human GPR84 expressed in CHO cells assessed as inhibition of forskolin-induced cAMP accumulation at 10 uM after 15 mins in presence of [3H]-cAMP by radiometric assay relative to decanoic acid
Format: functional, cell-based
Lab note: cut-off is 40%. Strictly less in Emax is criterion met. Exactly 40% or more is criterion not met.

Answered examples (3):
{"columns": ["compound", "category"],
 "data": [
  ["Fc1cccc2[nH]cc(Cc3c[nH]c4cccc(F)c34)c12", "criterion not met"],
  ["O=Cc1ccc2[nH]cc(Cc3c[nH]c4ccc(C=O)cc34)c2c1", "criterion met"],
  ["O=C1Nc2ccc(F)cc2/C1=C/c1c[nH]c2ccc(F)cc12", "criterion met"]
]}

Continue with the compound presented below.
Query string: Regarding CCCC(c1c[nH]c2ccccc12)c1c[nH]c2ccccc12 , kindly confirm whether its Emax is beneath 40%.
Result string: criterion met

###

Listing of recorded EC50 by entry.
assayedSystem: G-protein coupled receptor 84 (Homo sapiens)
testMethodNotes: Agonist activity at human GPR84 expressed in CHO cells assessed as beta-arrestin recruitment after 90 mins by beta-galactosidase complementation assay
Assay type: cell-based
Answer format: numeric, µM implied, no suffix.

Some molecules with recorded EC50:
{"columns": ["moleculeSmiles", "assayedSystem", "EC50 (µM)"],
 "data": [
  ["CCC(c1c[nH]c2ccccc12)c1c[nH]c2ccccc12", "G-protein coupled receptor 84 (Homo sapiens)", 2.97],
  ["CCCC(c1c[nH]c2ccccc12)c1c[nH]c2ccccc12", "G-protein coupled receptor 84 (Homo sapiens)", 6.07],
  ["COc1ccc2[nH]cc(Cc3c[nH]c4ccc(OC)cc34)c2c1", "G-protein coupled receptor 84 (Homo sapiens)", 1.2],
  ["Fc1cc2cc[nH]c2cc1F", "G-protein coupled receptor 84 (Homo sapiens)", 2.97],
  ["Clc1ccc2c(Cc3c[nH]c4cc(Cl)ccc34)c[nH]c2c1", "G-protein coupled receptor 84 (Homo sapiens)", 5.34]
]}

# EC50 (molecule: COc1ccc2[nH]cc(Cc3c[nH]c4ccccc34)c2c1 ) is 6.47

EC50 recorded for this molecule, Fc1cccc2c(Cc3c[nH]c4c(F)cccc34)c[nH]c12 , is 6.07

###

assayedSystem: G-protein coupled receptor 84 (Homo sapiens)
testMethodNotes: Agonist activity at human GPR84 expressed in CHO cells assessed as beta-arrestin recruitment at 10 uM after 90 mins by beta-galactosidase complementation assay relative to embelin
Type: cell-based
Emax: recorded values

{"columns": ["moleculeSmiles", "testResult"],
 "data": [
  ["COc1ccc2[nH]cc(Cc3c[nH]c4ccccc34)c2c1", "110%"],
  ["O=C(O)c1ccc2[nH]cc(Cc3c[nH]c4ccc(C(=O)O)cc34)c2c1", "-5%"],
  ["Oc1ccc(C(c2c[nH]c3ccccc23)c2c[nH]c3ccccc23)cc1", "-5%"]
]}

Record Fc1cc(F)c2[nH]cc(Cc3c[nH]c4c(F)cc(F)cc34)c2c1 , field Emax: 385%

The recorded Emax for COc1ccc2[nH]cc(Cc3c[nH]c4ccc(OC)cc34)c2c1 is 103%

Just so you know, measured Emax for CC(c1c[nH]c2cccc(F)c12)c1c[nH]c2cccc(F)c12 came out at 34%

###

assayedSystem: G-protein coupled receptor 84 (Homo sapiens, UniProt Q9NQS5)
testMethodNotes: Agonist activity at Gi coupled human GPR84 expressed in CHO cells assessed as inhibition of forskolin-induced cAMP accumulation after 15 mins in presence of [3H]-cAMP by radiometric assay
Assay type: functional, cell-based
pEC50: −log10 of the molar value.
pEC50 values for the compounds below.

{"columns": ["compound", "pEC50"],
 "data": [
  ["CC(c1c[nH]c2cccc(F)c12)c1c[nH]c2cccc(F)c12", "< 5.00"],
  ["COc1ccc2[nH]cc(Cc3c[nH]c4ccc(OC)cc34)c2c1", "6.43 to 6.44"],
  ["COc1ccc2[nH]cc(/C=C3\\C(=O)Nc4ccccc43)c2c1", "< 5.00"]
]}

We next turn to a different compound, shown below.
# pEC50 (compound: COc1ccc2[nH]cc(CC3C(=O)Nc4ccccc43)c2c1 (stereo unspecified) ) is < 5.00

###

assayedSystem: G-protein coupled receptor 84 (Homo sapiens, UniProt Q9NQS5)
testMethodNotes: Agonist activity at Gi coupled human GPR84 expressed in CHO cells assessed as inhibition of forskolin-induced cAMP accumulation after 15 mins in presence of [3H]-cAMP by radiometric assay
Assay type: functional, cell-based
Entries and their EC50 values follow.

{"columns": ["molecule", "EC50"],
 "data": [
  ["Fc1cccc2[nH]cc(Cc3c[nH]c4cccc(F)c34)c12", "0.328 µM"],
  ["COc1cccc2[nH]cc(Cc3c[nH]c4cccc(OC)c34)c12", "≥ 10 µM"],
  ["CC(c1c[nH]c2ccccc12)c1c[nH]c2ccccc12", "> 10 µM"]
]}

Noted for c1cnc2[nH]cc(Cc3c[nH]c4ncccc34)c2c1 : its EC50 reads > 10 µM

GET /value?item= COc1ccc(C(c2c[nH]c3ccccc23)c2c[nH]c3ccccc23)cc1 &field=EC50 returns > 10 µM

Sample O=C(O)c1ccc2[nH]cc(Cc3c[nH]c4ccccc34)c2c1 ; EC50 observed: > 10 µM

The molecule listed as Cc1[nH]c2ccccc2c1Cc1c(C)[nH]c2ccccc12 has a reported EC50 of ≥ 10 µM

Kindly note the recorded EC50 for Cc1cccc2[nH]cc(Cc3c[nH]c4cccc(C)c34)c12 , which is 0.987 µM

EC50 for Clc1cc(Cl)c2c(Cc3c[nH]c4cc(Cl)cc(Cl)c34)c[nH]c2c1 is ≥ 10 µM

Note to self: EC50 recorded for O=C1Nc2ccccc2C1=Cc1ccc2[nH]ccc2c1 was > 10 µM

O=C(c1c[nH]c2ccccc12)c1c[nH]c2ccccc12 has a reported EC50 of 0.553 µM

EC50 reported for this molecule O=C1Nc2ccc(F)cc2C1Cc1c[nH]c2ccc(F)cc12 (centres undefined) : > 10 µM

EC50 reading for CC(C)C(c1c[nH]c2ccccc12)c1c[nH]c2ccccc12 : > 10 µM

Entry Clc1ccc(C(c2c[nH]c3ccccc23)c2c[nH]c3ccccc23)cc1 — recorded EC50 = > 10 µM

Consider c1ccc2c(C(c3c[nH]c4ccccc34)c3c[nH]c4ccccc34)c[nH]c2c1 . Its measured EC50 is > 10 µM

EC50 measured on Fc1cc2c(Cc3c[nH]c4cc(Cl)c(F)cc34)c[nH]c2cc1Cl = 10.8 µM

For this molecule ( N#Cc1ccc2[nH]cc(Cc3c[nH]c4ccc(C#N)cc34)c2c1 ), measured EC50 is ≥ 10 µM

# molecule Fc1cccc2c(Cc3c[nH]c4c(F)cccc34)c[nH]c12 ; its EC50 = 0.113 µM

What the record says about Brc1ccc2[nH]cc(Cc3c[nH]c4ccc(Br)cc34)c2c1 : EC50 is 3.44 µM

The measured EC50 associated with COC(=O)c1ccc2[nH]cc(Cc3c[nH]c4ccc(C(=O)OC)cc34)c2c1 reads > 10 µM

Summary for this molecule, O=C1Nc2ccccc2C1Cc1ccc2[nH]ccc2c1 (centres undefined) : EC50 is > 10 µM

Item: Fc1ccc2c(Cc3c[nH]c4cc(F)ccc34)c[nH]c2c1 | EC50: 0.625 µM

Record Clc1ccc2[nH]cc(Cc3c[nH]c4ccc(Cl)cc34)c2c1 , field EC50: 4.96 µM

The molecule identified as Oc1ccc(C(c2c[nH]c3ccccc23)c2c[nH]c3ccccc23)cc1 registered its EC50 at > 10 µM

###

assayedSystem: G-protein coupled receptor 84 (Homo sapiens, UniProt Q9NQS5)
testMethodNotes: Agonist activity at Gi coupled human GPR84 expressed in CHO cells assessed as inhibition of forskolin-induced cAMP accumulation after 15 mins in presence of [3H]-cAMP by radiometric assay
Type: functional, cell-based
pEC50: −log10 of the molar value.
measurementType: pEC50

{"columns": ["moleculeSmiles", "assayedSystem", "pEC50"],
 "data": [
  ["Cc1ccc2[nH]cc(Cc3c[nH]c4ccc(C)cc34)c2c1", "G-protein coupled receptor 84 (Homo sapiens, UniProt Q9NQS5)", "≤ 5.00"]
]}

For this molecule ( Clc1ccc2c(Cc3c[nH]c4cc(Cl)ccc34)c[nH]c2c1 ), measured pEC50 is < 5.00

###

assayedSystem: UniProt:Q9NQS5
testMethodNotes: Agonist activity at Gi coupled human GPR84 expressed in CHO cells assessed as inhibition of forskolin-induced cAMP accumulation at 10 uM after 15 mins in presence of [3H]-cAMP by radiometric assay relative to decanoic acid
Type: functional, cell-based
The entries below come with measured Emax values attached.
A complete answer gives the number followed by the unit.

{"columns": ["compound", "assayedSystem", "measurementType", "testResult"],
 "data": [
  ["c1ccc(COc2ccc3[nH]cc(Cc4c[nH]c5ccc(OCc6ccccc6)cc45)c3c2)cc1", "UniProt:Q9NQS5", "Emax", "36%"],
  ["O=[N+]([O-])c1ccc2[nH]cc(Cc3c[nH]c4ccc([N+](=O)[O-])cc34)c2c1", "UniProt:Q9NQS5", "Emax", "31%"],
  ["O=C(c1c[nH]c2ccccc12)c1c[nH]c2ccccc12", "UniProt:Q9NQS5", "Emax", "104%"]
]}

Entry Clc1ccc2c(Cc3c[nH]c4cc(Cl)ccc34)c[nH]c2c1 under UniProt:Q9NQS5 had Emax of 4%

Item Cc1ccc2c(Cc3c[nH]c4cc(C)ccc34)c[nH]c2c1 was tested on UniProt:Q9NQS5; the reported Emax is -22%

Reported UniProt:Q9NQS5 Emax for item O=C1Nc2ccccc2C1Cc1ccc2[nH]ccc2c1 (stereo unspecified) was 7%

Considering Cn1cc(Cc2c[nH]c3ccccc23)c2ccccc21 , its Emax with UniProt:Q9NQS5 was recorded as 43%

Item Fc1cc2[nH]cc(Cc3c[nH]c4cc(F)c(F)cc34)c2cc1F ; assay system UniProt:Q9NQS5; Emax reported as 121%

Hey, UniProt:Q9NQS5 data for COc1ccc2[nH]cc(Cc3c[nH]c4ccc(OC)cc34)c2c1 : Emax came out at 119%

All values here come from ChEMBL document CHEMBL4014307.
